Below, each entry is listed with its recorded IC50.
# system under test: Integrin alpha-4/beta-1 (Homo sapiens, UniProt P05556+P13612)
# Sequence (P05556 whole entry, one chain of several): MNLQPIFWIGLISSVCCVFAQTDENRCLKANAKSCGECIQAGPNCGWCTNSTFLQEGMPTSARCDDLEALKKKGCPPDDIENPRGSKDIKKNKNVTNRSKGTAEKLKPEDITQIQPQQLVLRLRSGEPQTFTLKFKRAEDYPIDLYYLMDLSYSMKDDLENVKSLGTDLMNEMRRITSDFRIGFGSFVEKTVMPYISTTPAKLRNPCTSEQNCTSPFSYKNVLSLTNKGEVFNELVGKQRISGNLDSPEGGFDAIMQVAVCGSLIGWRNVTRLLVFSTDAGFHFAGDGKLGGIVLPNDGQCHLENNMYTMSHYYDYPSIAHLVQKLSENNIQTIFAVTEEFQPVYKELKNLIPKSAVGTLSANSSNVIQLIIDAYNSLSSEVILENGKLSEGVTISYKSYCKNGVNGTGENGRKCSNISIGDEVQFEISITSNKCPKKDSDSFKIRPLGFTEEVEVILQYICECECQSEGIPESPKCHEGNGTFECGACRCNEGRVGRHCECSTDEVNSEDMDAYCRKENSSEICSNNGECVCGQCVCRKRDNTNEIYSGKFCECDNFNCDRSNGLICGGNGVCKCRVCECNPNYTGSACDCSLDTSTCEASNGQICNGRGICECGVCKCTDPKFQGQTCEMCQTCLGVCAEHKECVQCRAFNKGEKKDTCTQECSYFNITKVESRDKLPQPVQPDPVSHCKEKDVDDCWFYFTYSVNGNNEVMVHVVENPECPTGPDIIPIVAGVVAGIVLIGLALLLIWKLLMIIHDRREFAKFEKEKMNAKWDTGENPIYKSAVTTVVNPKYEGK
# assay notes: Binding affinity towards VLA-4 (alpha4 beta-1) receptor in human Jurkat cells using [125I]VCAM-Ig as radioligand

compound: O=C(O)[C@H](Cc1ccc(-c2ccccc2)cc1)NC(=O)C1(S(=O)(=O)C2CCCCC2)CCCC1
IC50: 7 nM
//
compound: O=C(O)[C@H](Cc1ccc(-c2ccccc2)cc1)NC(=O)C1(S(=O)(=O)c2ccccc2)CC=CC1
IC50: 275 nM
//
compound: COc1cccc(OC)c1-c1ccc(C[C@H](NC(=O)C2(S(C)(=O)=O)CCCNC2)C(=O)O)cc1 (some centres undefined)
IC50: 0.19 nM
//
compound: COc1ccccc1-c1ccc(C[C@H](NC(=O)C2(S(=O)(=O)c3ccccc3)CCCN(C)C2)C(=O)O)cc1 (some centres undefined)
IC50: 6.6 nM

====

Documented pIC50 across a set of compounds
# system under test: Integrin alpha-4/beta-7 (Homo sapiens, UniProt P13612+P26010)
# assay notes: Binding affinity towards […] receptor in human RPMI-8866 B-cell line using [125I]MAdCAM-Ig as radioligand
pIC50: −log10 of the molar value.

compound: COc1ccccc1-c1ccc(C[C@H](NC(=O)C2(S(=O)(=O)c3ccccc3)CCN(C(C)(C)C)CC2)C(=O)O)cc1
pIC50: 5.04
--
compound: COc1cccc(OC)c1-c1ccc(C[C@H](NC(=O)C2(S(=O)(=O)c3cn(C)cn3)CCCNC2)C(=O)O)cc1 (stereo partly drawn)
pIC50: 7.01
--
compound: COc1ccccc1-c1ccc(C[C@H](NC(=O)C2(S(=O)(=O)c3ccccc3)CCOCC2)C(=O)O)cc1
pIC50: 6.82
--
compound: COc1ccccc1-c1ccc(C[C@H](NC(=O)C2(S(=O)(=O)c3ccccc3)CCN(C)CC2)C(=O)O)cc1
pIC50: 5.70
--
compound: COc1cccc(OC)c1-c1ccc(C[C@H](NC(=O)C2(S(=O)(=O)c3ccc(N4CCCC4)cc3)CCCNC2)C(=O)O)cc1 (stereo partly drawn)
pIC50: 6.27
--
compound: CCN(CC)S(=O)(=O)C1(C(=O)N[C@@H](Cc2ccc(-c3ccccc3OC)cc2)C(=O)O)CCCC1
pIC50: 7.27
--
compound: COc1ccccc1-c1ccc(C[C@H](NC(=O)C2(S(=O)(=O)c3ccccc3)CCC2)C(=O)O)cc1
pIC50: 7.80
--
compound: COc1ccccc1-c1ccc(C[C@H](NC(=O)C2(S(=O)(=O)C3CCCC3)CCCC2)C(=O)O)cc1
pIC50: 6.83
--
compound: COc1cccc(OC)c1-c1ccc(C[C@H](NC(=O)C2(S(=O)(=O)c3ccccc3)CCCCC2)C(=O)O)cc1
pIC50: 7.89
--
compound: COc1cccc(OC)c1-c1ccc(C[C@H](NC(=O)C2(S(=O)(=O)c3cncn3C)CCCNC2)C(=O)O)cc1 (stereo partly drawn)
pIC50: 7.34
--
compound: COc1cccc(OC)c1-c1ccc(C[C@H](NC(=O)C2(S(=O)(=O)c3ccccc3)CCSCC2)C(=O)O)cc1
pIC50: 8.30
--
compound: COc1ccccc1-c1ccc(C[C@H](NC(=O)C2(S(=O)(=O)c3ccccc3)CCS(=O)(=O)CC2)C(=O)O)cc1
pIC50: 7.15
--
compound: COc1cccc(OC)c1-c1ccc(C[C@H](NC(=O)C2(S(=O)(=O)c3ccccc3)CCN(C)CC2)C(=O)O)cc1
pIC50: 6.33
--
compound: COc1cccc(OC)c1-c1ccc(C[C@H](NC(=O)C2(S(=O)(=O)Cc3ccccc3)CCCNC2)C(=O)O)cc1 (stereo partly drawn)
pIC50: 6.36
--
compound: COc1cccc(OC)c1-c1ccc(C[C@H](NC(=O)C2(S(=O)(=O)c3ccc(Br)cc3)CCCNC2)C(=O)O)cc1 (stereo partly drawn)
pIC50: 7.03
--
compound: COc1cccc(OC)c1-c1ccc(C[C@H](NC(=O)C2(S(=O)(=O)c3ccccc3)CCC2)C(=O)O)cc1
pIC50: 8.49
--
compound: COc1ccccc1-c1ccc(C[C@H](NC(=O)C2(S(=O)(=O)c3ccccc3)CCOC2)C(=O)O)cc1 (stereo partly drawn)
pIC50: 7.35
--
compound: CCCCN1CCC(C(=O)N[C@@H](Cc2ccc(-c3ccccc3OC)cc2)C(=O)O)(S(=O)(=O)c2ccccc2)CC1
pIC50: 5.04

====

# system under test: Integrin alpha-4/beta-7 (Homo sapiens, UniProt P13612+P26010)
# Sequence (P13612 whole entry): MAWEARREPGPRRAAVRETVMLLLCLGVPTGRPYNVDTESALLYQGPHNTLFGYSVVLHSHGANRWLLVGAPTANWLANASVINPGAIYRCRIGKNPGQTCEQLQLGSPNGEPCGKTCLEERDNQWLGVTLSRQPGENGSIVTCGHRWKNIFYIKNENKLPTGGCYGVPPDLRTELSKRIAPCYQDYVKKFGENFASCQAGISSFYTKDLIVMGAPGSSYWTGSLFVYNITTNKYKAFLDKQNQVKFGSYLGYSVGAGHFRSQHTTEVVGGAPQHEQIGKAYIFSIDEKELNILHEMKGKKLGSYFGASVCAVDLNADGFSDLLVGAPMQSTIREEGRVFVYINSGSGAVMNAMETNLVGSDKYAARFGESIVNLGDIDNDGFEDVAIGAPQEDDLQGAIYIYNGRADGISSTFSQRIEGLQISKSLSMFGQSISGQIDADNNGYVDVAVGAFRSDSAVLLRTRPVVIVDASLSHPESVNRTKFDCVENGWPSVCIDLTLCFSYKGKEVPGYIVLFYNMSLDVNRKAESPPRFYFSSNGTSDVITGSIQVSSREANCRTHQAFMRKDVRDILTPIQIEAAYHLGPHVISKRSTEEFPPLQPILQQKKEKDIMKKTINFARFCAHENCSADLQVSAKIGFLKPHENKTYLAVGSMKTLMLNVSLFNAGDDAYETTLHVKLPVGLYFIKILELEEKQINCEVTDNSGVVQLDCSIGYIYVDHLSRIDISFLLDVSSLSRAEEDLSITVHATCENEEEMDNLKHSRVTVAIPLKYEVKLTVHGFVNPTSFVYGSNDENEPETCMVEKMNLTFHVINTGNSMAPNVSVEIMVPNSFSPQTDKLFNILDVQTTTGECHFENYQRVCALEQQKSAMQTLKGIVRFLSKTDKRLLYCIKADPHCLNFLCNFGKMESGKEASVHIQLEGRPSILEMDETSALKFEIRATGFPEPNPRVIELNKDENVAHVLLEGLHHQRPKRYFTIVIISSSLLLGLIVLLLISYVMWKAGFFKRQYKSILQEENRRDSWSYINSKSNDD
# Sequence (P26010 whole entry): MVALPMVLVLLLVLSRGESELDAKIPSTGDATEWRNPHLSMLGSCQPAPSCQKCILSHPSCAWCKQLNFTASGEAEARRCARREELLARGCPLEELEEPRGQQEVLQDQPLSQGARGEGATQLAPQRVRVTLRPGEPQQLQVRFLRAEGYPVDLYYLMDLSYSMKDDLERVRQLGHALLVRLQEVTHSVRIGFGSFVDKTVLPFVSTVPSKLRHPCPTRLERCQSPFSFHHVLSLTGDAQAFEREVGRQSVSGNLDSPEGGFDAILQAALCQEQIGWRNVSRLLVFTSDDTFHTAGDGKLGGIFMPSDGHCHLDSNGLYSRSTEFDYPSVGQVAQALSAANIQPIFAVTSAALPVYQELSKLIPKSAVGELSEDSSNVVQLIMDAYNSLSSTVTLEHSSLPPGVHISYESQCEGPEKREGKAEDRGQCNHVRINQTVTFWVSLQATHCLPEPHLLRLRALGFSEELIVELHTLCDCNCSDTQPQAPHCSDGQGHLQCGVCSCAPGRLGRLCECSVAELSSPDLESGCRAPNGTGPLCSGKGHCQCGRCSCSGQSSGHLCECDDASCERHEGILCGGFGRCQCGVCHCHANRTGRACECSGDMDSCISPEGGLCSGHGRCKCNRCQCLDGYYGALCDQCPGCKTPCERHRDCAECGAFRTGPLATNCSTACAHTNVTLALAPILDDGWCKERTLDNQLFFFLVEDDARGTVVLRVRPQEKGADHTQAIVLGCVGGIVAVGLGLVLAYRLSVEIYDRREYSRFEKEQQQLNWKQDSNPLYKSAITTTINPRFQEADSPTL
# assay notes: Binding affinity towards […] receptor in human RPMI-8866 B-cell line using [125I]MAdCAM-Ig as radioligand
# IC50 values compiled below

compound: O=C(Nc1ccc(C[C@H](NC(=O)C2(S(=O)(=O)c3ccccc3)CCOCC2)C(=O)O)cc1)c1c(Cl)cccc1Cl
system under test: Integrin alpha-4/beta-7 (Homo sapiens, UniProt P13612+P26010)
IC50 [nM]: 20
--
compound: COc1ccccc1-c1ccc(C[C@H](NC(=O)C2(S(=O)(=O)c3ccccc3)CCCNC2)C(=O)O)cc1 (stereo partly drawn)
system under test: Integrin alpha-4/beta-7 (Homo sapiens, UniProt P13612+P26010)
IC50 [nM]: 622
--
compound: COc1cccc(OC)c1-c1ccc(C[C@H](NC(=O)C2(S(=O)(=O)c3ccccc3)CCOCC2)C(=O)O)cc1
system under test: Integrin alpha-4/beta-7 (Homo sapiens, UniProt P13612+P26010)
IC50 [nM]: 38
--
compound: COc1cccc(OC)c1-c1ccc(C[C@H](NC(=O)C2(S(C)(=O)=O)CCCNC2)C(=O)O)cc1 (stereo partly drawn)
system under test: Integrin alpha-4/beta-7 (Homo sapiens, UniProt P13612+P26010)
IC50 [nM]: 21
--
compound: COc1cccc(OC)c1-c1ccc(C[C@H](NC(=O)C2(S(=O)(=O)c3ccccc3N3CCCC3)CCCNC2)C(=O)O)cc1 (stereo partly drawn)
system under test: Integrin alpha-4/beta-7 (Homo sapiens, UniProt P13612+P26010)
IC50 [nM]: 388
--
compound: COc1cccc(OC)c1-c1ccc(C[C@H](NC(=O)C2(S(=O)(=O)c3ccccc3)CCCC2)C(=O)O)cc1
system under test: Integrin alpha-4/beta-7 (Homo sapiens, UniProt P13612+P26010)
IC50 [nM]: 5
--
compound: O=C(O)[C@H](Cc1ccc(-c2ccccc2)cc1)NC(=O)C1(S(=O)(=O)c2ccccc2)Cc2ccccc2C1
system under test: Integrin alpha-4/beta-7 (Homo sapiens, UniProt P13612+P26010)
IC50 [nM]: 7340
--
compound: COc1ccccc1-c1ccc(C[C@H](NC(=O)C2(S(=O)(=O)Nc3ccccc3)CCCC2)C(=O)O)cc1
system under test: Integrin alpha-4/beta-7 (Homo sapiens, UniProt P13612+P26010)
IC50 [nM]: 521
